# Tested on: HCT-116 colon
# Experiment notes: NCI tumour cell line growth inhibition, 48 h
Where a SMILES comes first, the peptide text is derived from it. [ ]: non-standard residue; d: D form. The star is where a group is joined. NMeF = CN[CH](Cc1ccccc1)C(=O)O; NMeV = CN[CH](C(=O)O)C(C)C; Boc = CC(C)(C)OC(=O)*
Test readout: TGI

1. C1=CC2SSSC2C1 (stereo not given) | > 100 µM
2. Cn1c(=O)c(C(c2ccc([N+](=O)[O-])cc2)c2c(O)c3ccccc3n(C)c2=O)cc2ccccc21 (stereo not given) | > 100 µM
3. O=C(O)C1OC(n2cc(F)c(=O)[nH]c2=O)CC1O (stereo not given) | > 100 µM
4. Cc1cc(C(=O)Nc2ncc(Cc3cccc(C(F)(F)F)c3)s2)c2ccccc2n1 | > 100 µM
5. CS/C(N)=N\NC(=O)CCC(=O)Nc1ccccc1C(F)(F)F | > 100 µM
6. COc1ccc(Cn2cc3c(c2-c2ccccc2)CC(C)(C)c2cnoc2-3)cc1 | > 100 µM
7. CN1CCC(O)(C(C)(C)C)CC1 | > 100 µM
8. O=C(O)Cc1cccc2c(=O)c3ccccc3oc12 | > 100 µM
9. NCC1Nc2ccccc2[C@@H](O)C1O (stereo not given in full) | > 100 µM
10. O=C(Cc1ccccc1)NN1C(=O)C(Cl)C1c1cc(Br)ccc1O (stereo not given) | > 100 µM
11. NS(=O)(=O)c1ccc(N=Nc2c(O)[nH]c3ccc(-c4cnco4)cc23)cc1 | > 25 µM
12. O=C(NC1=CC(=O)c2ccccc2C1=O)c1ccccc1 | 1.6 µM
13. N=C1C(c2nc3ccccc3s2)=C(O)CN1c1cc(C(F)(F)F)ccc1Cl | 62.2 µM
14. CCCN1CCC(=O)N(CCC(F)(F)C(F)(F)C(F)(F)C(F)(F)C(F)(F)C(F)(F)F)C1=S | > 100 µM
15. Nc1nc(N)c2ncn(-c3ccc(Cl)cc3)c2n1 | > 100 µM
16. Cn1cc(NC(=O)c2cc(NC(=O)CN=C(N)N)cn2C)cc1C(=O)NCCC(=N)N | > 100 µM
17. CCOc1ccccc1NC(=O)CC(C(=O)OC)C(=O)C(=O)OC (stereo not given) | > 100 µM
18. CC12C(=O)CC(CC1=O)C2(C)C | > 100 µM
19. COC(C(O)CO)C(O)C(O)C(=O)NNc1ccccc1 (stereo not given) | > 100 µM
20. Cc1ccc([N+](=O)[O-])cc1S(=O)(=O)Nc1ccc(C2=NNC(c3ccccc3)C2)cc1 (stereo not given) | 33.1 µM
21. CC(C)C(NC(=O)OC(C)(C)C)C(=O)N(C)C(Cc1ccccc1)C(=O)N(C)C(C(=O)O)C(C)C (stereo not drawn) (Boc-Val-[NMeF]-[NMeV]-OH; configuration not given here) | > 100 µM
22. CC(C)(C)c1cc(Br)c(O)c(CN(Cc2cc(C(C)(C)C)cc(Br)c2O)C2CCCCC2)c1 | 25 µM
23. COc1cc(Cn2c3c(c4cc(O)ccc42)Cc2ccccc2C3=O)cc(OC)c1 | > 100 µM
24. NCCCCN(CCCN)/[N+]([O-])=N\O | > 100 µM
25. O=C1/C(=N/O)Cc2c(Br)ccc(Br)c21 | > 100 µM
26. CC(C)(C)OC(=O)NC(Cc1ccc(OCc2ccccc2)cn1)C(=O)N1CCCCC1 (stereo not given) | > 100 µM
27. CC(=O)[O-].CCN(CC)c1ccc(C=NCCN=Cc2ccc(N(CC)CC)cc2[O-])c([O-])c1.[Mn+3] | 33.3 µM
28. CN1C/C=C\CCOc2cccc(c2)-c2ccnc(n2)Nc2cccc(c2)C1 | 0.677 µM
29. O=Cc1c(C(=O)O)[nH]c(=O)[nH]c1=O | > 100 µM
30. COc1cc2ncnc(Nc3ccc(C)c(O)c3)c2cc1OC | > 25 µM
